FYI, the data here is from patent US20230082611A1.

System: RSV (Respiratory Syncytial Virus strain A2)
Assay: RSV cytopathic effects (CPE) assay
Format: cell-based
Conditions: human respiratory syncytial virus, HEp-2, 96 h
endpoint label: EC50 (nM)
Use nM as the unit, but write only the number.

Any idea what EC50 was measured for C#CCOCCOCCOCCOCCOCCOCCOCCOCCN[C@H]1CCN(c2nc3cc([C@@H]4CCCCN4C(=O)c4cc(Cl)ccc4NS(C)(=O)=O)nn3cc2C)C1 ?
2.29

###

Assay: Inherent cytotoxicity run in parallel with the CPE assay (CellTiter-Glo)
Format: cell-based
Conditions: human, HEp-2 cells, 4 days post treatment
endpoint label: CC50 at 4 days (µM)
Give your result in µM as a bare value.

Request the reported CC50 at 4 days associated with NC(=O)c1ncn([C@@H]2O[C@H](CO)[C@@H](O)[C@H]2O)n1 [Ribavirin, reference compound]
174

---
For the compound C#CCOCCOCCOCCOCCN[C@H]1CCN(c2nc3cc(C4CCCCN4C(=O)c4cc(Cl)ccc4NS(C)(=O)=O)nn3cc2C)C1 (stereo partly drawn) , what CC50 at 4 days is on record?
10.4

Data request, read-out CC50 at 4 days, for C#CCOCCOCCOCCOCCC(=O)N[C@H]1CCN(c2nc3cc([C@@H]4CCCCN4C(=O)c4cc(Cl)ccc4NS(C)(=O)=O)nn3cc2C)C1
49.7
